The following molecules are shown together with reported IC50 values.
- ASSAYED SYSTEM: Phosphodiesterase 4 (Homo sapiens, UniProt P27815+Q08499+Q07343+Q08493)
- PROCEDURE DETAILS: In vitro binding activity towards catalytic site of phosphodiesterase 4
- Format: protein assay
MEASURED ENDPOINT: IC50

[
  {
    "MOLECULE": "COc1ccc(S(=O)(=O)N(Cc2cccnc2)S(C)(=O)=O)cc1OC1CCCC1",
    "ASSAYED SYSTEM": "Phosphodiesterase 4 (Homo sapiens, UniProt P27815+Q08499+Q07343+Q08493)",
    "RESULT": "2 µM"
  },
  {
    "MOLECULE": "CCCN(Cc1ccco1)S(=O)(=O)c1ccc(OC)c(OC)c1",
    "ASSAYED SYSTEM": "Phosphodiesterase 4 (Homo sapiens, UniProt P27815+Q08499+Q07343+Q08493)",
    "RESULT": "1.5 µM"
  },
  {
    "MOLECULE": "COc1ccc(S(=O)(=O)N(Cc2cccnc2)S(C)(=O)=O)cc1OC",
    "ASSAYED SYSTEM": "Phosphodiesterase 4 (Homo sapiens, UniProt P27815+Q08499+Q07343+Q08493)",
    "RESULT": "6 µM"
  },
  {
    "MOLECULE": "COc1ccc(S(=O)(=O)N2CCc3ccccc32)cc1OC",
    "ASSAYED SYSTEM": "Phosphodiesterase 4 (Homo sapiens, UniProt P27815+Q08499+Q07343+Q08493)",
    "RESULT": "4.3 µM"
  },
  {
    "MOLECULE": "COc1ccc(S(=O)(=O)N(CCCC#N)Cc2ccco2)cc1OC",
    "ASSAYED SYSTEM": "Phosphodiesterase 4 (Homo sapiens, UniProt P27815+Q08499+Q07343+Q08493)",
    "RESULT": "9 µM"
  },
  {
    "MOLECULE": "COc1ccc(S(=O)(=O)N(CCC#N)CC2CCCO2)cc1OC (centres undefined)",
    "ASSAYED SYSTEM": "Phosphodiesterase 4 (Homo sapiens, UniProt P27815+Q08499+Q07343+Q08493)",
    "RESULT": "19 µM"
  },
  {
    "MOLECULE": "COc1ccc(S(=O)(=O)NC2CCc3ccccc32)cc1OC (centres undefined)",
    "ASSAYED SYSTEM": "Phosphodiesterase 4 (Homo sapiens, UniProt P27815+Q08499+Q07343+Q08493)",
    "RESULT": "6 µM"
  },
  {
    "MOLECULE": "COc1ccc(S(=O)(=O)N(Cc2ccccc2)Cc2cccnc2)cc1OC",
    "ASSAYED SYSTEM": "Phosphodiesterase 4 (Homo sapiens, UniProt P27815+Q08499+Q07343+Q08493)",
    "RESULT": "5 µM"
  },
  {
    "MOLECULE": "COc1ccc(C(=O)NC2CCc3ccccc32)cc1OC (centres undefined)",
    "ASSAYED SYSTEM": "Phosphodiesterase 4 (Homo sapiens, UniProt P27815+Q08499+Q07343+Q08493)",
    "RESULT": "11 µM"
  }
]
